target: menin-MLL interaction (Homo sapiens); assay: biochemical
observed property: IC50

Some compounds with known IC50 results, for comparison:
N#Cc1cc2cc(CN3CCC(Nc4ncnc5sc(CC(F)(F)F)cc45)CC3)ccc2n1CC(O)(CO)CN1CCOCC1 (centres unmarked) [Compound 333]; < 100 nM
COCCOC(CO)Cn1c(C#N)cc2cc(CN3CCC(Nc4ncnc5sc(CC(F)(F)F)cc45)CC3)ccc21 (centres unmarked) [Compound 316]; < 100 nM
FC(F)(F)Cc1cc2c(N[C@H]3CCN(Cc4ccccc4)C[C@@H]3NCCC3CCCC3)ncnc2s1 [Compound 171]; 100 to 500 nM
Cc1nn[nH]c1Cn1c(C#N)cc2c(C)c(CN3CCC(Nc4ncnc5sc(CC(F)(F)F)cc45)CC3)ccc21 [Compound 327]; < 100 nM
NCc1ccc(CN2CCC(Nc3ncnc4sc(CC(F)(F)F)cc34)CC2)cc1 [Compound 137]; 500 to 2000 nM
NCc1ccccc1CN1CCC(Nc2ncnc3sc(CC(F)(F)F)cc23)CC1 [Compound 121]; 100 to 500 nM
NS(=O)(=O)Cc1cccc(CC(=O)N2CCN(c3ncnc4sc(CC(F)(F)F)cc34)CC2)c1 [Compound 96]; 500 to 2000 nM
N#CCn1c(C#N)cc2cc(CN3CCC(Nc4ncnc5sc(CC(F)(F)F)cc45)CC3)ccc21 [Compound 197]; < 100 nM

input: Recorded IC50 for CCOc1cc2c(cc1CN1CCC(Nc3ncnc4sc(CC(F)(F)F)cc34)CC1)cc(C#N)n2C[C@H](O)CO [Compound 217] , please?
output: < 100 nM

---

IC50 values for the compounds below.
Biological target: menin-MLL interaction (Homo sapiens, UniProt O00255)
Sequence (O00255 1-610): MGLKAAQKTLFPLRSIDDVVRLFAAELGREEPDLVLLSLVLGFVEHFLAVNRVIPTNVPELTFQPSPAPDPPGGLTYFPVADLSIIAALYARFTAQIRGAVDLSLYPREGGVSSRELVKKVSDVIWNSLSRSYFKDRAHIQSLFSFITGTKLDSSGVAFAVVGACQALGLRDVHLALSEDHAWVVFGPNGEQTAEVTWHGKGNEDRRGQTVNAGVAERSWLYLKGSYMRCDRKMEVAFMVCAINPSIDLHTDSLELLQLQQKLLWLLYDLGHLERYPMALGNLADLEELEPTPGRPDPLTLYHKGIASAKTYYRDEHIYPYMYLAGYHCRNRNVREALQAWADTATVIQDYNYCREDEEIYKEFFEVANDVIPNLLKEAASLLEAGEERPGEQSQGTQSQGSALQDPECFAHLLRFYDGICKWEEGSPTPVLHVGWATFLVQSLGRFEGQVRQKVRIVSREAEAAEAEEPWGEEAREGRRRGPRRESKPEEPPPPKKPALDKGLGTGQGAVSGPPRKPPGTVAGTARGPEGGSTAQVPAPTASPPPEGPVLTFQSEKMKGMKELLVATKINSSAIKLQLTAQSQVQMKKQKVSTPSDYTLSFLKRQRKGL
Experiment: biochemical

input: Quick one: IC50 for CC(C)NCC(O)Cn1c(C#N)cc2cc(CN3CCC(Nc4ncnc5sc(CC(F)(F)F)cc45)CC3)ccc21 (stereo not drawn) [Compound 251] ?
output: 500 to 2000 nM

---

target: menin-MLL interaction (Homo sapiens, UniProt O00255); experiment: biochemical
pIC50: −log10 of the molar value.
Recorded pIC50 by entry

Look over these answered cases.
O=C(Cc1ccc(Cc2ccoc2)cc1)N1CCN(c2ncnc3sc(CC(F)(F)F)cc23)CC1; 6.30 to 7.00
Cc1c(CN2CCC(Nc3ncnc4sc(CC(F)(F)F)cc34)CC2)ccc2c1cc(C#N)n2CCN1CCN(C(=O)CCc2ccccc2)CC1; > 7.00
N#Cc1cc2cc(CN3CCC(Nc4ncnc5sc(CC(F)(F)F)cc45)CC3)ccc2n1CCN; > 7.00
COCCOCCn1cc(Cn2c(C#N)cc3c(C)c(CN4CCC(Nc5ncnc6sc(CC(F)(F)F)cc56)CC4)ccc32)cn1; > 7.00
N#Cc1cc2cc(CN3CC[C@@H](Nc4ncnc5sc(CC(F)(F)F)cc45)[C@@H](CO)C3)ccc2[nH]1; > 7.00

input: // map O[C@@H]1CN(Cc2ccccc2)CC[C@H]1Nc1ncnc2sc(CC(F)(F)F)cc12 (relative stereo) to recorded pIC50 (system: menin-MLL interaction (Homo sapiens, UniProt O00255))
output: 6.30 to 7.00

input: Record lookup: for menin-MLL interaction (Homo sapiens, UniProt O00255), what pIC50 belongs to `CS(=O)(=O)Nc1ccc(CC(=O)N2CCN(c3ncnc4sc(CC(F)(F)F)cc34)CC2)cc1` ?
output: > 7.00

Sourced from patent US9505781B2
